- TARGET_ENTITY: Ephrin type-A receptor 2 (Homo sapiens)
- Sequence (P29317 whole entry, the tested form may be a part): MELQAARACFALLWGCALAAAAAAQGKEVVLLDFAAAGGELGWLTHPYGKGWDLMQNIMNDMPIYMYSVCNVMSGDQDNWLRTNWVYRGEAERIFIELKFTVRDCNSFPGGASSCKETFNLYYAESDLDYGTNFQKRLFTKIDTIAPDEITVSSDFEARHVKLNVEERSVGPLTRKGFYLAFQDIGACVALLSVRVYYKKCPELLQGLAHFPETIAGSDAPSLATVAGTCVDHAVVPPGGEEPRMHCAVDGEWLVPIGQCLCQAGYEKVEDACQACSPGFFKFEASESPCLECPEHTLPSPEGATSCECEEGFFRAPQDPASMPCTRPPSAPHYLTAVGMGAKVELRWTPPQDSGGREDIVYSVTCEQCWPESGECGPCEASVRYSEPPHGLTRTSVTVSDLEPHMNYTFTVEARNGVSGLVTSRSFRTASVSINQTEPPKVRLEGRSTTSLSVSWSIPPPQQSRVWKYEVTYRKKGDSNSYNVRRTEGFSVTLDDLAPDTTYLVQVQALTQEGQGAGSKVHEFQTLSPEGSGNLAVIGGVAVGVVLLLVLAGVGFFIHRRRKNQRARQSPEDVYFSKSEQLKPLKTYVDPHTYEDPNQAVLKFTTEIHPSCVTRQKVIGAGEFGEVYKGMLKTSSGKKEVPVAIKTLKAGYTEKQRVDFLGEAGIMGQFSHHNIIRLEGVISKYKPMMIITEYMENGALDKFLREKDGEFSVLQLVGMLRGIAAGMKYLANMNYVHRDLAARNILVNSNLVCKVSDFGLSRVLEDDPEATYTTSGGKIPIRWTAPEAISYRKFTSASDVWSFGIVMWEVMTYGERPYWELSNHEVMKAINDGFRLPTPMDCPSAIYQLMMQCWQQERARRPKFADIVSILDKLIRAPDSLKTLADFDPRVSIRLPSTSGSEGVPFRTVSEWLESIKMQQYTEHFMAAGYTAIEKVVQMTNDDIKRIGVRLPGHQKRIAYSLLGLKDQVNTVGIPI
- ASSAY_OVERVIEW: Inhibition of recombinant human N-terminal His6-tagged EphA2 (N598 to R890 residues) expressed in baculovirus using poly-EY as substrate after 180 mins by luciferase coupled chemiluminescence assay
MEASURED_QUANTITY: IC50

Illustrative cases are given below, each with its answer.
COMPOUND | MEASURED_VALUE
COc1cc2c(Nc3ccc(Cl)c(Cl)c3)ncnc2cc1OC[C@@H]1CN2CCC[C@@H]2CO1 | < 50 nM
COc1cc2c(Nc3ccc(Cl)c(Cl)c3)ncnc2cc1OCC1CN(CCC2CCCCC2)CCO1 (centres undefined) | 50 to 1000 nM
COc1cc2c(Nc3ccc(F)c(Cl)c3F)ncnc2cc1OC[C@@H]1CN2CCOC[C@H]2CO1 | 50 to 1000 nM

Exercise: Please tell me the measured IC50 for COc1cc2c(Nc3ccc(Cl)c(Cl)c3)ncnc2cc1OCC1OCCN(CC(=O)c2ccccc2)C1=O (centres undefined) ; system: Ephrin type-A receptor 2 (Homo sapiens).
Key: 50 to 1000 nM

Exercise: Please tell me the measured IC50 for CCC1(C)CN(C)CC(COc2cc3ncnc(Nc4ccc(Cl)c(Cl)c4)c3cc2OC)O1 (centres undefined) ; system: Ephrin type-A receptor 2 (Homo sapiens).
Key: 50 to 1000 nM

Exercise: Please tell me the measured IC50 for COc1cc2c(Nc3ccc(Cl)c(Cl)c3)ncnc2cc1OCC1CN(CCC(C)C)CCCO1 (centres undefined) ; system: Ephrin type-A receptor 2 (Homo sapiens).
Key: 50 to 1000 nM

Exercise: Please tell me the measured IC50 for CCCCc1ccc(C(=O)N2CCOC(COc3cc4ncnc(Nc5ccc(Cl)c(Cl)c5)c4cc3OC)C2)cc1 (centres undefined) ; system: Ephrin type-A receptor 2 (Homo sapiens).
Key: 1000 to 20000 nM

Exercise: Please tell me the measured IC50 for COc1cc2c(Nc3ccc(Br)c(Cl)c3Cl)ncnc2cc1OC[C@@H]1CN2CCOC[C@H]2CO1 ; system: Ephrin type-A receptor 2 (Homo sapiens).
Key: 50 to 1000 nM

Exercise: Please tell me the measured IC50 for COc1cc2c(Nc3ccc(N4CCN(C)CC4)c(Cl)c3Cl)ncnc2cc1O[C@H]1CO[C@H]2[C@@H]1OC[C@@H]2F ; system: Ephrin type-A receptor 2 (Homo sapiens).
Key: 1000 to 20000 nM
